From: PubChem BioAssay (NCI)

- System: UACC-62 melanoma
- experimentalDetails: NCI tumour cell line growth inhibition, 48 h
// TGI lookup, one value per entry
observedProperty: TGI

molecule="CC(=O)OCC1=C(C)C(OC(=O)C(OC(C)=O)[C@@H](NC(=O)c2ccccc2)c2ccccc2)CCC1(C)C (some centres undefined)" systemtested="UACC-62 melanoma" observedproperty=TGI measuredresult="> 100 µM"
molecule="CC(C)C1CC(O)O[C@@H]([C@@H](C)[C@H]2CC(=O)[C@@H]3[C@@H]4[C@@H](O)[C@H](O)[C@H]5[C@@H](O)[C@H](O)CC[C@]5(C)[C@H]4CC[C@]23C)C1 (some centres undefined)" systemtested="UACC-62 melanoma" observedproperty=TGI measuredresult="> 100 µM"
molecule=c1ccc(CSc2nc(N3CCOCC3)c3cn[nH]c3n2)cc1 systemtested="UACC-62 melanoma" observedproperty=TGI measuredresult="30.3 µM"
molecule="CC1(C)Oc2ccc3c(=O)cc(-c4ccc(F)cc4)oc3c2C1C(=O)O (centres undefined)" systemtested="UACC-62 melanoma" observedproperty=TGI measuredresult="> 100 µM"
molecule=CNC(=S)N/N=C/c1cccc(C)n1 systemtested="UACC-62 melanoma" observedproperty=TGI measuredresult="56.4 µM"
molecule="CC1C(=O)C(C)C(c2ccccc2)N(N=O)C1c1ccccc1 (centres undefined)" systemtested="UACC-62 melanoma" observedproperty=TGI measuredresult="> 655 µM"
molecule=C=C(C)C(=O)O[C@H]1[C@H]2[C@H](OC(=O)[C@H]2C)[C@H](O)[C@@H](C)[C@@H]2C=CC(=O)[C@]21C systemtested="UACC-62 melanoma" observedproperty=TGI measuredresult="3.84 µM"
molecule=CC(C)C[P+](c1ccccc1)(c1ccccc1)c1ccccc1 systemtested="UACC-62 melanoma" observedproperty=TGI measuredresult="> 100 µM"
molecule=Cn1c(-c2cccs2)cc(-c2cccs2)c1-c1ccsc1 systemtested="UACC-62 melanoma" observedproperty=TGI measuredresult="> 100 µM"
molecule="CC1OC2CC(=O)OC2C2=C1C(=O)c1c(O)c3c(c(O)c1C2=O)C1CC(O)C3(O)C(C)O1 (centres undefined)" systemtested="UACC-62 melanoma" observedproperty=TGI measuredresult="2.13 µM"
molecule=Cc1nc2ccccc2c(=O)[nH]1 systemtested="UACC-62 melanoma" observedproperty=TGI measuredresult="> 100 µM"
molecule="COc1ccc2c(c1)OC(N(C(C)=O)C(C)=O)=C(C#N)C2c1ccc(F)cc1 (centres undefined)" systemtested="UACC-62 melanoma" observedproperty=TGI measuredresult="> 100 µM"
molecule=CCOC(=O)C(=O)Nc1c(C)cccc1C systemtested="UACC-62 melanoma" observedproperty=TGI measuredresult="> 100 µM"
molecule="CCCCCCCCCCCCCCCC(=O)OCC1OC(n2c(O)c(N=NC(N)=S)c3ccc([N+](=O)[O-])cc32)C(OC(C)=O)C1OC(C)=O (centres undefined)" systemtested="UACC-62 melanoma" observedproperty=TGI measuredresult="> 100 µM"
molecule=OCCCCCCOc1ccc(-c2cc(-c3ccccn3)nc(-c3ccccn3)c2)cc1 systemtested="UACC-62 melanoma" observedproperty=TGI measuredresult="0.933 µM"
molecule=Clc1nc(Cl)c2ncn(Cc3ccc(COc4cccc(OCc5ccc(Cn6cnc7c(Cl)nc(Cl)nc76)cc5)c4)cc3)c2n1 systemtested="UACC-62 melanoma" observedproperty=TGI measuredresult="> 100 µM"
molecule="COc1cccc(C2c3cc4c(cc3OC(O)(CO)C2C(=O)O)OCO4)c1 (centres undefined) (tested in a mixture with another compound)" systemtested="UACC-62 melanoma" observedproperty=TGI measuredresult="> 100 µM"
molecule=O=C(CCl)N1c2ccccc2Sc2c1ccc1ccccc21 systemtested="UACC-62 melanoma" observedproperty=TGI measuredresult="4.9 µM"
molecule=CN(C)Cc1cc(N=Nc2ccccc2)cc(CN(C)C)c1O systemtested="UACC-62 melanoma" observedproperty=TGI measuredresult="> 100 µM"
